Attribution: the supplement of paper PMC12764529

Assay: folding stability dG unfold from trypsin proteolysis; higher = more stable
Please respond with reported folding stability dG unfold for every item in the list.
Numbers only, in kcal/mol.

Hi there! I need folding stability dG unfold for each item below, if you can.
1. SAGGMMEVEEREVEIELELEPGQSIEEALRELLGLEEGDEIVDVEVEVDPETRKVKIRVVILRPPEEESAGG [r13_828_TrROS_Hall]
2. SAGGSAGGMKTTTYTFPGTLEEAKALAEELVAALPPHAKEVTVEVTPDPATGTVTVTITVKELASAGGSAGG [r6_164_JUSTAS]

Output line:
1. 4.24
2. 3.17

Could you report folding stability dG unfold for every entry in the following list?
1. SAGGSAGGSTTSTIKVTLENPSGSPLKLETATITTDPVAGTSTLTVTVPGTGETKFVGTNPNLSSAGGSAGG [r6_330_JUSTAS]
2. SAMKFKKGAKIEIEVEKVEEKEIDGKTVAVYRMKIKIEVDGKKYEIEVEIYYDKETKEWKIVKVEIKEVSAG [r14_293_TrROS_Hall]
3. SAGGSAGGSGFPVRLKIWDPDETYTYTVPMDPDNVQKFAEELGEKNFNIETEPNGWATITIPKSAGGSAGGS [r12_292_TrROS]
4. SAGGSAGGSAGEEKEYRIVVPFDSDDPEAFVRAVFDGIPPDVPIKAIDFNPELGYGVVVASAGGSAGGSAGG [r11_698_TrMRF]
5. SWNLRLEIEEVEIEPSDNWIIIMVRVEIEGRNPDDPNKPRPVFEVWVMIPIPLPPPKPKPDPDDPAAAKDSA [r9_357_TrROS]
6. SAGPDLPFDVRLVEVRDMEVRVTPDGRLVVTLPMVGRHPSGFLVRRTIRFEPETDRVEATGEVRPLDESAGG [r19_320_TrMRF]
7. SAGGKVTLRAPVVVPKDKIEDFIDALREALEALGLKEFKDIEIKEIIEGDDYYIIDFEVTAEADLPELASAG [r5_575_TrMRF]
8. SENKPVTVLVNVTKNEDGTYTARVFVFDENGKLLAEEEVEAPLEKAVELVEALKKAYPNAKVVAVFTEGLSA [r9_374_TrMRF]

Output line:
1. 0.713
2. 3.55
3. 0.471
4. 0.364
5. 2.29
6. 0.581
7. 2.65
8. 3.63

Quick batch: folding stability dG unfold for everything below.
1. SAGGSAGGSAGGAELLPSDVLKFTLTIQPDLKGSPPIIVEVTISVPPEVLEKPEIEVSLSAGGSAGGSAGGS [r10_672_JUSTAS]
2. SKKKKKKKKKKVIIKIKKDGKEIYIEMTVEEIKELLKKGVKKIEIYSPSEEEKEKIKKLLEEEGVEVEEVSA [r9_810_TrROS_Hall]

Output line:
2.12
2

For every item below, please supply its folding stability dG unfold.
1. SAGGSAGGSAGMTLRLKIRVYDPETREEVEEKEIEVELPPGASLEELLAALPPEQVEVEFSAGGSAGGSAGG [r17_339_TrROS_Hall]
2. SAGGSAGGSAGGIYPGPGNLLYFTGEDDYVKVIKITPPDNTIKIDIEIVPKGEATKIPYSAGGSAGGSAGGS [r10_257_TrMRF]

Output line:
1. 0.534
2. 0.161

---

Test: folding stability dG unfold (combined trypsin and chymotrypsin); higher = more stable
Tag: Condition met if measured folding stability dG unfold is not below 2 kcal/mol, Condition not met if it is.

Examples with answers:
- MITPEEAIELAKEKAKELLEKAGPGTPSVVVEIKAEDGRVVKVEVDPVKKVINITVYDKGGKKVAEKIIEES [r1_370_JUSTAS]: Condition met
- SAGGSAGGSAGGAPVEVKTAVFRHPDNPRWYVLRVARLPGTGRLVVVLFDPETGEFAVFPSAGGSAGGSAGG [r7_923_TrMRF]: Condition not met
- SAGGSAGGPSYTIQFPYPPGMPPWRLQKLLEEAGYPPPEIEYNPKNGSHWITFSPEVRDAFKELSAGGSAGG [r6_307_TrROS]: Condition not met
- SAGERKVLVIENLTSEELIEAIREALEKSPPGLLILVPDPEKAEEIRRAFPGIPLVVLNRETGELVEVESAG [r5_391_TrMRF]: Condition met
- SAGGGSSMVTTVIPVLRTETLFDENGNVIGPRTTVETIELEAEVPLPPRPPLVFSFVPPELRDPAVLLSAGG [r13_508_JUSTAS]: Condition not met
- SAGGSAGGSAGGSGSSVTTVTEEPGRRVVTRFVPETGEEEVLSTEEVPAPPLPLSPALLSAGGSAGGSAGGS [r4_21_JUSTAS]: Condition not met

Input line: Decide: is the reported value of folding stability dG unfold for SAGGSAGGSAGEEEELPLVIRVRFKGPEEVEIEIEAESLEDALAAIESLPDIEEIEILPRSAGGSAGGSAGG [r11_587_TrROS_Hall] equal to or greater than 2 kcal/mol?
Output line: Condition not met

Input line: Does folding stability dG unfold meet or surpass 2 kcal/mol for SAGGSAGGSAGGPKIEVNEDGTVTITLEVDGKLVTKTVKVELEAPPVETVEFVKEGEEVSAGGSAGGSAGGS [r10_240_TrROS_Hall] ?
Output line: Condition not met

Input line: Does SAGGSAGGAPVYVTTDTRERADPNGSTVRTSLVRDPNGPATYRVTETVPPDGSVASTTTAVPGASAGGSAGG [r6_839_JUSTAS] have a reported folding stability dG unfold of at least 2 kcal/mol?
Output line: Condition not met

Input line: Could you please find out whether SAGGSAKDEKVVVIVRREVRLRSRPKVDLGEGNPRVEFESSVEVRVPFLVLPEDDPVARELRELEGSAGGSA [r15_470_TrMRF] has folding stability dG unfold that meets 2 kcal/mol or exceeds it?
Output line: Condition not met

Input line: Is the recorded value of folding stability dG unfold equal to or greater than 2 kcal/mol for this sequence? SAGRIHVMVFPLDPKDGKWEWVWTFTIDFKPGEKLTLDEIADDIPPKGYMVMIWFTPDTITITIWRRKDSAG [r5_269_TrROS]
Output line: Condition met

Input line: Determine whether measured folding stability dG unfold meets or exceeds 2 kcal/mol for SAGGSAGGSPGPGTEVEVRYRHPATGRWYPGVAVFTPDGSIRVYFPALGTTVTVPPHTVEPVPSAGGSAGGS [r12_726_TrMRF]
Output line: Condition not met

Input line: Identify whether the reported folding stability dG unfold of the following sequence is 2 kcal/mol or greater: SAGGSAMVTVTRYPDGTYVVEATGRGDSRTFTLDLPLEEIKEVLEKEGIKIDKIEVKPAPVDPAKVSAGGSA [r15_576_JUSTAS]
Output line: Condition not met
